// provenance: the Deep4Chem optical property database

Assay: photoluminescence quantum yield (fraction); solvent given as SMILES
Settings: in Cc1ccccc1
Measured photoluminescence quantum yield accompanies every entry in the list below.
MEASURED_METRIC: photoluminescence quantum yield

1. COc1ccc2c3c(cccc13)C(=O)c1ccccc1-2	0.1
2. O=c1oc2ccccc2cc1-c1cc2ccccc2o1	0.88
3. CCn1c2ccccc2c2cc(/C=C/c3cccc(/C=C/c4ccc5c(c4)c4ccccc4n5CC)[n+]3CCCS(=O)(=O)[O-])ccc21	0.08
4. c1ccc(-c2ccc(-c3nc(-n4c5ccccc5c5ccc6c7ccccc7n(-c7ccccc7)c6c54)nc(-n4c5ccccc5c5ccc6c7ccccc7n(-c7ccccc7)c6c54)n3)cc2)cc1	0.1
5. COCCC1=Cc2nc1ccc1[nH]c(cc1CCOC)c1nc(ccc3[nH]c2cc3CCO)C(CCOC)=C1	0.32
6. Cc1ccc(N(c2ccc(C)cc2)c2ccc3c(c2)c2cc(N(c4ccc(C)cc4)c4ccc(C)cc4)ccc2n3-c2ccc(-c3nc4cccc5c4n3-c3ccccc3C5(C)C)cc2)cc1	0.85
7. CC1(C)c2ccccc2N(c2ccc(-c3ccc4c(c3)C(=O)c3ccc(-c5ccc(N6c7ccccc7C(C)(C)c7ccccc76)cc5)cc3C4=O)cc2)c2ccccc21	0.17
8. CCCCCCCC(=O)Oc1ccc2c3cccc4c(OC(=O)CCCCCCC)ccc(c5cccc1c52)c43	0.97
9. F[B-]1(F)N2C(=Nc3cccc4cccc2c34)c2cccc[n+]21	0.006
10. c1ccc(N(c2ccccc2)c2c3ccccc3cc3ccccc23)cc1	0.92
11. COc1ccc(N(c2ccc(/C=C(\C)c3ccccc3)cc2)c2ccc(/C=C(\C)c3ccccc3)cc2)cc1	0.48
12. CCCCC(CC)CN1C(=O)c2cc(Oc3ccc(OC)cc3)c3c4c(Cl)cc5c6c(cc(Cl)c(c7c(Oc8ccc(OC)cc8)cc(c2c37)C1=O)c64)C(=O)N(c1c(C(C)C)cccc1C(C)C)C5=O (stereo not given)	0.13
13. COc1ccc2c3ccc(OC)cc3n(-c3ccc(-c4nnc(-c5c(C(C)C)cc(C(C)C)cc5C(C)C)o4)cc3)c2c1	0.03
14. CC1(C)c2ccccc2N(c2ccc(C(=C(C#N)C#N)c3ccc(N4c5ccccc5C(C)(C)c5ccccc54)cc3)cc2)c2ccccc21	0.0171
15. CCOC(=O)COc1ccc(/C=C/C2=C3c4ccccc4C(c4[nH]c(C)cc4C)=[N+]3[B-](F)(F)n3c(/C=C/c4ccc(OCC(=O)OCC)cc4)cc(C)c32)cc1	0.009
16. CCCCCCCCCCCCn1cccc1/C=C/c1ccc(OCCCC)c2c(/C=C/c3cccn3CCCCCCCCCCCC)ccc(OCCCC)c12	0.35
17. COc1ccc(-c2cc3c(o2)=CC2=Cc4cc5oc(-c6ccc(OC)cc6)cc5n4[B-](F)(F)[N+]=32)cc1	0.87
18. CCn1c2ccccc2c2cc(-c3cc(-c4ccc5c(c4)c4ccccc4n5CC)nc(SC)n3)ccc21	0.35
19. N#Cc1c(-n2c3ccccc3c3cc(Br)ccc32)c(C#N)c(-n2c3ccccc3c3cc(Br)ccc32)c(-n2c3ccccc3c3cc(Br)ccc32)c1-n1c2ccccc2c2cc(Br)ccc21	0.85
20. CC1(C)c2ccccc2N(c2ccc(-c3nc4cc(C#N)c(C#N)cc4nc3-c3ccc(N4c5ccccc5C(C)(C)c5ccccc54)cc3)cc2)c2ccccc21	0.91
21. COc1ccc(C2=[N+]3C(=Nc4c(-c5ccccc5-c5ccc(C(C)(C)C)cc5)cc(-c5ccc(OC)cc5)n4[B-]3(F)F)c3c2c2cc(C(C)(C)C)ccc2c2ccccc32)cc1	0.38
22. c1ccc(-c2cc(-c3ccc4ccc5c(-c6ccnc(-c7ccccn7)c6)ccc6ccc3c4c65)ccn2)nc1	0.56
23. O=C(c1ccc(-n2c3ccccc3c3cc(-n4c5ccccc5c5ccccc54)ccc32)cc1)c1ccc(-n2c3ccccc3c3cc(-n4c5ccccc5c5ccccc54)ccc32)cn1	0.38
24. CCN(CC)c1ccc(-c2cc3c(s2)c(C(=O)OC)cc(=O)n3C)cc1	0.98
25. Cc1ccc(-n2c3ccccc3c3cc(C=C(C#N)C#N)ccc32)cc1	0.11
26. c1ccc(N2c3ccc4ccccc4c3-c3c4ccccc4cc[n+]3[B-]2(c2ccccc2)c2ccccc2)cc1	0.17
27. CCC1(CC)c2cc(/C=C/c3ccc(N(c4ccccc4)c4ccccc4)cc3)ccc2-c2ccc(/C=C/c3ccc(N(c4ccccc4)c4ccccc4)cc3)cc21	0.84
28. CCN1c2ccc(/C=N/Nc3ccccn3)cc2Sc2cc(-c3ccccc3)ccc21	0.17
29. COC(=O)/C=C/c1ccc2ccc3cccc4ccc1c2c34	0.47
30. CC1(C)c2ccccc2N(c2ccc(-c3nc4c(C#N)ccc(C#N)c4nc3-c3ccc(N4c5ccccc5C(C)(C)c5ccccc54)cc3)cc2)c2ccccc21	0.72

* * *

Assay: photoluminescence quantum yield (fraction); solvent given as SMILES
Conditions: in CC(C)=O
# 1.0 = photoluminescence quantum yield below 0.1 (exclusive); 0.0 = photoluminescence quantum yield at/above 0.1

1) COc1cnc(-c2cc[n+](C3=C(F)C(F)(F)C(F)(F)[C-]3F)cc2)s1	0.0
2) CN(C)c1ccc2cc(C3=[O+][B-](F)(F)OC(c4ccccc4)=C3)ccc2c1	1.0
3) CCCCCCCCC1(CCCCCCCC)c2cc(-c3ccc(C(F)(F)F)cc3)ccc2-c2ccc(N(c3ccc(-n4c5ccccc5c5ccccc54)cc3)c3ccc4c(c3)C(CCCCCCCC)(CCCCCCCC)c3cc(-c5ccc(C(F)(F)F)cc5)ccc3-4)cc21	0.0
4) CN(C)c1ccc(/C=C/C=N/N=C/c2ccc3ccc4cccc5ccc2c3c45)cc1	1.0
5) CCN(CC)c1ccc(/C=C/c2ccc(-c3ccc(/C=C/c4ccc(N(CC)CC)cc4)s3)s2)cc1	0.0
6) c1ccc(-c2nn(-c3ccccc3)c3nc4ccc(N(c5ccccc5)c5ccccc5)cc4cc23)cc1	0.0
7) CCN(CC)c1ccc2cc(/C=C/C3=CC(/C=C/c4cc5ccc(N(CC)CC)cc5oc4=O)=[O+][B-](F)(F)O3)c(=O)oc2c1	1.0
8) CN(C)c1ccc2nc(/C=C/c3cc4c5c(c3)CCCN5CCC4)c(=O)oc2c1	1.0

* * *

Assay: photoluminescence quantum yield (fraction); solvent given as SMILES
Conditions: in CC#N
Criterion: photoluminescence quantum yield meeting or surpassing 0.1. Met: Met. Not met: Not met.

1. c1ccc(-c2cc3c(oc4ccccc43)c(-c3ccccc3)[o+]2)cc1	Met
2. N#Cc1ccc(-n2cccc2)cc1	Not met
3. O=C1/C(=C\c2ccc(N(c3ccccc3)c3ccccc3)cc2)S(=O)(=O)c2ccccc21	Not met
4. COCCN1C(=O)/C(=C/c2cccc(N(C)C)c2)N=C1C	Not met
5. COc1cc(-c2nc3c4cccnc4c4ncccc4c3[nH]2)c(OC)cc1/C=C/c1ccncc1	Met
6. CNc1cccc2c1C(=O)c1ccccc1-2	Not met
7. CCOC(=O)c1nn(-c2ccc(OC)cc2)nc1N1CCCC1	Met
8. CCCCCCc1ccc(-n2c3[n+](c4c5ccccc5c5ccccc5c42)[B-](C)(C)c2ccccc2-3)cc1	Met
9. Cc1cccc2c1nc1c(=O)n(C)c(=O)nc-1n2C	Met
10. O=[N+]([O-])c1ccc(C#Cc2ccccc2C#Cc2ccc([N+](=O)[O-])cc2)cc1	Not met
11. CCCCCCCCCCCCNc1cccc2[n+]1[B-](F)(F)n1c(c3cccc4cccc1c43)=N2	Met
12. COc1ccc(-c2cc3ccc4cc(-c5ccc(OC)cc5)cc5ccc(c2)c3c45)cc1	Met
13. N#Cc1nc2c(OCc3ccccc3)nc(N)nc2n1Cc1ccccc1	Met
14. O=c1oc2ccccc2cc1-c1ccc([N+](=O)[O-])cc1	Not met
15. COC(=O)c1nc2cnc(N(C)C)nc2n1Cc1ccccc1	Met
16. COc1ccc(-c2cc3c(s2)c(-c2ccccc2)cc(=O)n3C)cc1	Met
17. O=c1[nH]c(=O)n([C@@H]2O[C@H](CO)[C@@H](O)[C@H]2O)cc1-c1cc2ccccc2s1	Not met
18. CCOC(=O)c1c2c3c(ccc(C)c3c3cc4c(cc13)[Si](C)(C)O[Si]4(C)C)N(C)C2=O	Met
19. COC(=O)C(Cc1ccc2oc(-c3ccc(N(c4ccccc4)c4ccccc4)cc3)nc2c1)NC(=O)OC(C)(C)C (stereo unspecified)	Met
20. N#Cc1cccc2c(N)c(-c3nn([C@H]4C[C@H](O)[C@@H](CO)O4)c4ncnc(N)c34)ccc12	Met

* * *

Assay: photoluminescence quantum yield (fraction); solvent given as SMILES
Settings: in ClCCl
MEASURED_METRIC: photoluminescence quantum yield

1. O=C1c2cccc3c(NCc4ccccn4)c4ccccc4c(c23)C(=O)N1Cc1ccccn1	0.1
2. COc1ccc(-c2nc(C(C)=O)c(C)o2)cc1	0.051
3. CC(C)(C)c1ccc2c(c1)c1cc(C(C)(C)C)ccc1n2-c1ccc(C#Cc2ccccc2)cc1	0.8
4. CCN(CC)c1ccc2c(c1)oc(=O)c1c(=O)oc3cc(C#Cc4ccc(C#N)cc4)ccc3c12	0.69
5. Cc1cc2c3ccccc3sc2c2[nH]c3ccccc3c12	0.058
6. CCCCC1=Cc2c3ccc4cccc5ccc(c6cc(-c7ccc(N(c8ccccc8)c8ccccc8)cc7)n(c26)P1(=O)c1ccccc1)c3c45 (centres undefined)	0.62
7. F[B-]1(F)n2cccc2C(c2ccc(-c3c4ccccc4c(-c4ccccc4)c4ccccc34)cc2)=C2C=CC=[N+]21	0.002
8. COC(=O)c1[nH]c(-c2ccccc2)c2nnc3c4ccccc4oc3c12	0.167
9. CCN(CC)c1ccc(/C=C/C2=[O+][B-](F)(F)Oc3c2c(=O)oc2cc(N(CC)CC)ccc32)cc1	0.16
